Cited source: patent US20260209223A1

Measured on: Ba/F3 BCR-FGFR2 (Homo sapiens, UniProt P21802)
Construct: BCR (fusion partner); host or cells: Ba/F3; the other entry of the earlier key: BCR (P11274, Breakpoint cluster region protein)
Sequence (P21802 481-770 limits assumed): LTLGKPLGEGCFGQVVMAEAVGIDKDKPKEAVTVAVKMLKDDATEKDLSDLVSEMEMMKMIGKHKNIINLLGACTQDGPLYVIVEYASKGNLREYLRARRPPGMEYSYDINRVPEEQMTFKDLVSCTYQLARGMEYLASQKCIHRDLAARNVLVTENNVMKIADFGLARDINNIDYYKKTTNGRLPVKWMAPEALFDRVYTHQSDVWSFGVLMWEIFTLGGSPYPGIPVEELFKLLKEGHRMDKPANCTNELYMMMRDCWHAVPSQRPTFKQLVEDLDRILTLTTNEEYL
Method notes: Ba/F3 cell viability assay (CellTiter-Glo 2.0)
Format: cell-based
Run parameters: Ba/F3 cell data, BCR-FGFR2 fusion, 48 hours
Value kind: Kd

I'd like to know its Kd. The compound in question is C=CC(=O)N1CCC2(CC1)CC(n1nnc(-c3cc(O[C@H](C)c4ccccn4)c4c(Cl)cnn4c3)c1C)C2
100 to 250 nM

Reported Kd, compound COC1(C(=O)N2CCC(n3nnc(-c4cc(OC(CO)c5ccccn5)c5c(C#N)cnn5c4)c3C)CC2)CN(C(=O)/C=C/CN(C)C)C1 (stereo not drawn) : ____
≥ 1000 nM

Please give the measured Kd for this compound: C=CC(=O)N1CCC2(CC1)CC(n1ncc(-c3cc(O[C@H](CO)c4ccccn4)c4c(C#N)cnn4c3)c1C)C2
100 to 250 nM

Which measured Kd value corresponds to C=CC(=O)N1CCC2(CC1)CC(n1nnc(-c3cc(O[C@H](C)c4ccccn4)c4c(C#N)cnn4c3)c1C)C2 ?
0.1 to 100 nM

# input compound: C=CC(=O)N1CCC2(CC1)CC(n1ncc(-c3cc(O[C@H](CO)c4ccc(F)cn4)c4c(C#N)cnn4c3)c1C)C2 ; wanted: its Kd
100 to 250 nM

Which Kd is listed for C=CC(=O)N1CCC2(CC1)CC(n1ncc(-c3cc(O[C@@H](CO)c4ccccn4)c4c(Cl)cnn4c3)c1C)C2 ?
≥ 1000 nM

// Kd lookup, key: C=CC(=O)N1CCC2(CC1)CC(n1nnc(-c3cc(O[C@@H](CO)c4ccc(F)cn4)c4c(C#N)cnn4c3)c1C)C2
≥ 1000 nM

Record request: Kd value, item C=CC(=O)N1CCC2(CC1)CC(n1ncc(-c3cc(OC(CO)c4ccccn4)c4c(Cl)cnn4c3)c1C)C2 (single isomer, unassigned)
250 to 1000 nM

Query: Kd; subject: C=CC(=O)N1CCC2(CC1)CC(n1ncc(-c3cc(O[C@@H](CO)c4ccccn4)c4c(C#N)cnn4c3)c1C)C2
250 to 1000 nM

Fill in: Kd of C=CC(=O)N1CCC2(CC1)CC(n1ncc(-c3cc(OC(CO)c4ccnn4C)c4c(C#N)cnn4c3)c1C)C2 (stereo not drawn) is ___
≥ 1000 nM

Any idea what Kd was measured for C=CC(=O)N1CCC2(CC1)CC(n1ncc(-c3cc(O[C@@H](CO)c4ccc(F)cn4)c4c(C#N)cnn4c3)c1C)C2 ?
≥ 1000 nM

Report Kd for C=CC(=O)N1CCC(n2ncc(-c3cc(O[C@@H](CO)c4ccc(F)cn4)c4c(C#N)cnn4c3)c2C)CC1 please.
≥ 1000 nM

Quick check: Kd of C=CC(=O)N1CC(OC)(C(=O)N2CCC(n3nnc(-c4cc(O[C@@H](CO)c5ccccn5)c5c(C#N)cnn5c4)c3C)CC2)C1 ?
≥ 1000 nM

Field request: Kd | item: C=CC(=O)N1CCC2(CC1)CC(n1nnc(-c3cc(O[C@H](CO)c4ccc(F)cn4)c4c(C#N)cnn4c3)c1C)C2
100 to 250 nM

Requested read-out: Kd. Entry: CCC(=O)N1CCC2(CC1)CC(n1cc(-c3cc(O[C@H](CO)c4ccc(F)cn4)c4c(C#N)cnn4c3)cn1)C2
0.1 to 100 nM

Tell me the measured Kd of C=CC(=O)N1CC(OC)(C(=O)N2CCC(n3nnc(-c4cc(O[C@H](CO)c5ccccn5)c5c(C#N)cnn5c4)c3C)CC2)C1 , please.
≥ 1000 nM

Item under review: C=CC(=O)N1CCC2(CC1)CC(n1ncc(-c3cc(OC(CO)c4ccn(C)n4)c4c(C#N)cnn4c3)c1C)C2 (stereo not drawn) . Reported Kd?
250 to 1000 nM

Would you mind telling me what Kd value was observed for C=CC(=O)N1CCC2(CC1)CC(n1ncc(-c3cc(OC(CO)c4cncc5ccccc45)c4c(C#N)cnn4c3)c1C)C2 (stereo not drawn) ?
100 to 250 nM

I'd like to know its Kd. The compound in question is C=CC(=O)N1CC(C(=O)N2CCC(n3nnc(-c4cc(O[C@H](CO)c5ccccn5)c5c(C#N)cnn5c4)c3C)CC2)C1 (single isomer, unassigned)
≥ 1000 nM

Item C=CC(=O)N1CC(F)(C(=O)N2CCC(n3nnc(-c4cc(O[C@H](CO)c5ccccn5)c5c(C#N)cnn5c4)c3C)CC2)C1 (single isomer, unassigned) has what recorded Kd?
≥ 1000 nM

Please look up its Kd: C=CC(=O)N1CCC(n2ncc(-c3cc(O[C@H](CO)c4ccc(F)cn4)c4c(C#N)cnn4c3)c2C)CC1
100 to 250 nM
